Target: Potassium voltage-gated channel subfamily A member 3 (Homo sapiens, UniProt P22001)
Sequence (P22001 whole entry): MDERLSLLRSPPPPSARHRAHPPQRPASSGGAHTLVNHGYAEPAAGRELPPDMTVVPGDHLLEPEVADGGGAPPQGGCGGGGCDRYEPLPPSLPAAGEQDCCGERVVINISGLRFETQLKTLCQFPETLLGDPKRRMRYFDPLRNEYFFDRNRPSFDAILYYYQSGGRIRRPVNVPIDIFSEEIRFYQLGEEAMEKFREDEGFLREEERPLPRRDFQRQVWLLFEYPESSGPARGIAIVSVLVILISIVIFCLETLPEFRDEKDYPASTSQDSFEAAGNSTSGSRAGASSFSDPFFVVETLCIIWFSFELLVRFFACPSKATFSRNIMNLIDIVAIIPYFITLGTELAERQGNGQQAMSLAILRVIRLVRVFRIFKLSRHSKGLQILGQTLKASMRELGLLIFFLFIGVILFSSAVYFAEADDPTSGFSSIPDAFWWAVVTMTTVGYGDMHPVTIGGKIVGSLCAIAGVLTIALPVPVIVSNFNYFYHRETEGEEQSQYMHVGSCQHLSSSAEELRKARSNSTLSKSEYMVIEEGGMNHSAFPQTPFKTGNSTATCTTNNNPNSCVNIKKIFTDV
Experiment: Dissociation constant for the blockage of voltage-gated potassium channel subunit Kv1.3 in human lymphocytes
Format: cell-based
pKd: −log10 of the molar value.
OBSERVABLE: pKd

COMPOUND | NUMERIC RESULT
COc1c(C(=O)/C=C/c2cccs2)c(O)c(OC)c2occc12 | 6.00
COc1c(C(C)=O)c(OCc2ccc(COc3cc4occc4c(OC)c3C(C)=O)cc2)cc2occc12 | 6.00

1 = COc1c(C(C)O)c(OCc2ccc(COc3c(C(C)O)c(OC)c4occc4c3OC)cc2)c(OC)c2occc12 (stereo not given)
2 = COc1c(C(C)=O)c(OCc2ccc(COc3c(C(C)=O)c(OC)c4ccoc4c3OC)c(C(=O)O)c2)c(OC)c2occc12
Return label of the item with the larger pKd. Candidates: 1 , 2 . Your answer should be the label of the entry you select. 1

1 = COc1c(C(=O)/C=C/c2ccc(C)cc2)c(O)c(OC)c2occc12
2 = COc1c(C(C)=O)c(OCCCCCCCOc2c(C(C)=O)c(OC)c3ccoc3c2OC)c(OC)c2occc12
3 = COc1c(C(C)=O)c(O)cc2occc12
Sort these compounds on pKd so the largest reading comes first. Thanks in advance for listing the labels in the requested order. 1, 2, 3

I = COc1c(C(C)=O)c(OCCCCCCOc2c(C(C)=O)c(OC)c3ccoc3c2OC)c(OC)c2occc12
II = COc1c(C(C)=O)c(OCc2ccccc2)c(OC)c2occc12
Please state the entry with greater pKd among I and II . Returns: label corresponding to the selected item. I
